target: Human EphA2 (Ecto) (Human) (UniProt P29317); assay: FP competition, tracer Compound 18
Sequence (P29317 24-537): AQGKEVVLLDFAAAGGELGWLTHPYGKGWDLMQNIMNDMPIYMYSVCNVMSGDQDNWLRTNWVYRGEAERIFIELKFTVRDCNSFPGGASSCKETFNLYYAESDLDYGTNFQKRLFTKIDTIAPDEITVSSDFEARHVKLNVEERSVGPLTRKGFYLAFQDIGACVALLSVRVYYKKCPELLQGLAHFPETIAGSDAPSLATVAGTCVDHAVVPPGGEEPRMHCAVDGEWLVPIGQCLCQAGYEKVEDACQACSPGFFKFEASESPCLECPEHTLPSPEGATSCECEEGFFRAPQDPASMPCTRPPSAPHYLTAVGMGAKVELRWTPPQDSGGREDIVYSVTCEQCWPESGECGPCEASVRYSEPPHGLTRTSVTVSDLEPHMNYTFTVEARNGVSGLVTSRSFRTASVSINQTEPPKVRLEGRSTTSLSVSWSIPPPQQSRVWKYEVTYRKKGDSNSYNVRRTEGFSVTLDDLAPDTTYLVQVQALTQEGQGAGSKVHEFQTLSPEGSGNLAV
Starred links: 1 amine or outer side, 2 acyl side, 3 side chain; linkers in the order of their positions; H or OH if unused. Positions of bridges follow the written chain, without caps; N, C: chain ends. Non-standard residues stand in square brackets, D forms with d. No end group written: not given here. 1Nal = N[C@@H](Cc1cccc2ccccc12)C(=O)O; TBMB = c1c(C[*:1])cc(C[*:3])cc1C[*:2]; Gly(cPent) = N[C@H](C(=O)O)C1CCCC1; hArg = N=C(N)NCCCC[C@H](N)C(=O)O; Tle = CC(C)(C)[C@H](N)C(=O)O; Aib = CC(C)(N)C(=O)O; βAla = NCCC(=O)O; Sar = CNCC(=O)O
experimentalEndpoint: Ki (nM)

# binder, experimentalEndpoint, assayResult
measured = [
    ("[βAla][Sar][Sar][Sar][Sar][Sar][Sar][Sar][Sar][Sar][Sar]H[dD]VPCPWG[Aib]FWCP[Tle]N[hArg]P[dD]C (linker 16-23-30 via TBMB) [Bicycle Compound 271]", "Ki", 3.66),
    ("[βAla][Sar][Sar][Sar][Sar][Sar][Sar][Sar][Sar][Sar][Sar]H[dD]VPCP[1Nal]G[Aib][hArg][1Nal]CP[Tle]NR[Aib]GC (linker 16-23-30 via TBMB) [Bicycle Compound 249]", "Ki", 1.38),
    ("[βAla][Sar][Sar][Sar][Sar][Sar][Sar][Sar][Sar][Sar][Sar]H[dD]VPCP[1Nal]G[Aib]FWCP[Tle]N[hArg]P[dD]C (linker 16-23-30 via TBMB) [Bicycle Compound 265]", "Ki", 1.55),
    ("[βAla][Sar][Sar][Sar][Sar][Sar][Sar][Sar][Sar][Sar][Sar]H[dD][Gly(cPent)]TCP[1Nal]G[Aib]F[1Nal]CP[Tle]N[hArg]P[dD]C (linker 16-23-30 via TBMB) [Bicycle Compound 280]", "Ki", 0.64),
]
